Subject of test: Histone deacetylase 1 (Homo sapiens)
Sequence (Q13547 whole entry): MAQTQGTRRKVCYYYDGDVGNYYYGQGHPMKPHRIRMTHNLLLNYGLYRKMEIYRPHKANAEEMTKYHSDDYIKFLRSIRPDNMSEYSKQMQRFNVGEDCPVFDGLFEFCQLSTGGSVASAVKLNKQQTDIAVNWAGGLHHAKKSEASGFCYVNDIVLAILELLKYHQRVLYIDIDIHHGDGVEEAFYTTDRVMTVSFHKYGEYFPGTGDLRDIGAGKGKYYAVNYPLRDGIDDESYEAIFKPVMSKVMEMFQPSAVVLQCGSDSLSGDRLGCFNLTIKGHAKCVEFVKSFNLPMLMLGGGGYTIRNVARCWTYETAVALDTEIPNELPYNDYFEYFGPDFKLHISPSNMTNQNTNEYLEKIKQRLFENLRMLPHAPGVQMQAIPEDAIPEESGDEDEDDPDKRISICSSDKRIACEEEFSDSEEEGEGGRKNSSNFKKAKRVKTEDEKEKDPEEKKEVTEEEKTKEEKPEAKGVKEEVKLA
Readout name: IC50 (µM)

smiles_repr=CC(=O)N(O)CCCCCNC(=O)CCC(=O)N(O)CCCCCNC(=O)CCC(=O)N(O)CCCCCN1C(=O)c2cccc3cccc(c23)C1=O subject_of_test="Histone deacetylase 1 (Homo sapiens)" readout_name=IC50 reported=258

---

Subject of test: UniProtKB O49150
Sequence (O49150 whole entry): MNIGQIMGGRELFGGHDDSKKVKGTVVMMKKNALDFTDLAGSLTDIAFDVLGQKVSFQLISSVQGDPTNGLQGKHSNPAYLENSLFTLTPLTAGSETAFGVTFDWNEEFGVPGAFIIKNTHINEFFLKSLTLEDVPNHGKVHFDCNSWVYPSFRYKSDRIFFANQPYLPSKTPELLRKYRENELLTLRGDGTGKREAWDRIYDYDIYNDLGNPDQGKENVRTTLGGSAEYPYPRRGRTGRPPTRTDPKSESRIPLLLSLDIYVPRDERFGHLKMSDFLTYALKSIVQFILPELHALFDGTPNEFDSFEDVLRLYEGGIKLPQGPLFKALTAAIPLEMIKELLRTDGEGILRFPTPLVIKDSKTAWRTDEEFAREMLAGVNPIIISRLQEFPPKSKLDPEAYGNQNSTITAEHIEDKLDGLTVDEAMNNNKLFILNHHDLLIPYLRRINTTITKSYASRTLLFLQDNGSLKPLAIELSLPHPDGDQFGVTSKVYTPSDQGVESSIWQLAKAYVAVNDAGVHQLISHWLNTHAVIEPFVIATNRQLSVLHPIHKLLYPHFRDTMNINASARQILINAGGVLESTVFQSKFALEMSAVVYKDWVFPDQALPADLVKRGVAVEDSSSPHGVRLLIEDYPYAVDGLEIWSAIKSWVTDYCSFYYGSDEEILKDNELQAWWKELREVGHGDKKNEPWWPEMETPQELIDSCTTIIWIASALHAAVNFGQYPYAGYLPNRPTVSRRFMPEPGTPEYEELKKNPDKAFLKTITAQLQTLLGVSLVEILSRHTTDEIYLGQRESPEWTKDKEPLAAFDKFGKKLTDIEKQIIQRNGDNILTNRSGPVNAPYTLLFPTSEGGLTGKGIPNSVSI
Readout name: IC50

smiles_repr=CC(=O)N(O)C/C=C/c1cccc(Oc2ccccc2)c1 readout_name=IC50 reported="17.1 µM"

These measurements were taken from BindingDB's records for doi:10.1002/cbic.201600636.
